Kindly supply the reported inhibition at 0.1 µM values for the records listed here.
# target-desc: LCK (Homo sapiens)
# Sequence (P06239 whole entry): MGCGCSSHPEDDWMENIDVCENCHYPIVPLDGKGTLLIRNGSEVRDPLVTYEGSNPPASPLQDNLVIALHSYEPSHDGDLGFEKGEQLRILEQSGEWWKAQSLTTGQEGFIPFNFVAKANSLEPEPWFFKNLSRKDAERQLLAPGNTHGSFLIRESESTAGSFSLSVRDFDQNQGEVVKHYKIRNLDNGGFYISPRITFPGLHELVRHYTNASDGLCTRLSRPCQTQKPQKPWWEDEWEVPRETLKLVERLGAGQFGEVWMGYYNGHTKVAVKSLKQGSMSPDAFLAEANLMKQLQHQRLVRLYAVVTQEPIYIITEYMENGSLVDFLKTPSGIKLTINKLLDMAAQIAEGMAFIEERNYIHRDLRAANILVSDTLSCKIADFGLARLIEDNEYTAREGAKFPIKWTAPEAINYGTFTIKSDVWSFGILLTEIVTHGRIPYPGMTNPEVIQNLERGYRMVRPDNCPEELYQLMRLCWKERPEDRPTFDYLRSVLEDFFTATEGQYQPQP
# procedure-text: High-throughput kinase assay
# Format: biochemical
# run-parameters: 100 nM; read-out: Percent inhibition of kinase activity in vitro, LCK
Give bare numbers, in %.

>>> reported_measurement("O=c1c2ccccc2[se]n1-c1nc(N[C@H]2CC[Se]C2)c2nc[nH]c2n1")
8

Give one value of inhibition at 0.1 µM per listed compound.
1. O=c1c2ccccc2[se]n1-c1nc(NC2CC[Se]C2)c2nc[nH]c2n1 (centres unmarked)
2. C[C@@H]1C(Nc2nc(-n3[se]c4ccccc4c3=O)nc3[nH]cnc23)C[C@H]2C[C@@H]1C2(C)C (some centres unmarked)
3. O=c1c2ccccc2[se]n1-c1nc(NC2CCCCC2)c2nc[nH]c2n1
4. O=C1c2ccccc2CN1c1nc(NC2CCCCC2)c2nc[nH]c2n1 [SLLN-6C, reference compound]

Found:
1. 10
2. 0
3. 7
4. 8

---

Kindly supply the reported inhibition at 0.1 µM values for the records listed here.
# target-desc: RET (Homo sapiens, UniProt P07949)
# Sequence (P07949 29-1114): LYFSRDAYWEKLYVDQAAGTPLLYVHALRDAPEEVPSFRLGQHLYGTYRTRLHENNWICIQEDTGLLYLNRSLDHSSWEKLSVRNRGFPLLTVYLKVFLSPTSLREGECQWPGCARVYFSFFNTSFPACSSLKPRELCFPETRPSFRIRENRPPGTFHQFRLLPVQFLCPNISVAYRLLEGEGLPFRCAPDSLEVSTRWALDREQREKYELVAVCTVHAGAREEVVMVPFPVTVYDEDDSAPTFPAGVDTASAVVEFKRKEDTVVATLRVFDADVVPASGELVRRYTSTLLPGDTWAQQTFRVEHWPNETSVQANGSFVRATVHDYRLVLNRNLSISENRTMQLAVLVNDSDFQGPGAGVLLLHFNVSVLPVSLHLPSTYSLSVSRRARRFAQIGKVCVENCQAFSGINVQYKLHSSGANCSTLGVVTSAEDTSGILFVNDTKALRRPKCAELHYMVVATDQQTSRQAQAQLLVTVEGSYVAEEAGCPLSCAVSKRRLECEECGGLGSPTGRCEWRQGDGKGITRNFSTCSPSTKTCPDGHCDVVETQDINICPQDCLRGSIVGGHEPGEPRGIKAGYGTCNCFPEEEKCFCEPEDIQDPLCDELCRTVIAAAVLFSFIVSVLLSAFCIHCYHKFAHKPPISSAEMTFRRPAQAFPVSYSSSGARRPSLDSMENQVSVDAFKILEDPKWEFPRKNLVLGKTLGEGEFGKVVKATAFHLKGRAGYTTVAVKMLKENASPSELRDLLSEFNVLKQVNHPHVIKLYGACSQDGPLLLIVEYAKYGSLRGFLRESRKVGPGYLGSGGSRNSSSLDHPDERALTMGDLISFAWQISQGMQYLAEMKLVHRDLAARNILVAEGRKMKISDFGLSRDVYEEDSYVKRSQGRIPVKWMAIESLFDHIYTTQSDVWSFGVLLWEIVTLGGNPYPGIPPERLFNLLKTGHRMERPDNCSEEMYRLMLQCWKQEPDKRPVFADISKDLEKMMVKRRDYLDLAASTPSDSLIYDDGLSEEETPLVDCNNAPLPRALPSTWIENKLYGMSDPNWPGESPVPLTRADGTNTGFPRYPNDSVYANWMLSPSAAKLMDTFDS
# procedure-text: High-throughput kinase assay
# Type: biochemical
# run-parameters: 100 nM; read-out: Percent inhibition of kinase activity in vitro, RET
Answer shape: numeric part, then the unit.

Look over these answered cases.
>>> reported_measurement("O=c1c2ccccc2[se]n1-c1nc(N[C@H]2CC[Se]C2)c2nc[nH]c2n1 [Compound 4]")
"10%"
>>> reported_measurement("C[C@@H]1C(Nc2nc(-n3[se]c4ccccc4c3=O)nc3[nH]cnc23)C[C@H]2C[C@@H]1C2(C)C (some centres unmarked) [Compound 3]")
"5%"
>>> reported_measurement("O=C1c2ccccc2CN1c1nc(NC2CCCCC2)c2nc[nH]c2n1 [SLLN-6C, reference compound]")
"6%"

Give one value of inhibition at 0.1 µM per listed compound.
1. O=c1c2ccccc2[se]n1-c1nc(NC2CC[Se]C2)c2nc[nH]c2n1 (centres unmarked) [Compound 2]
2. O=c1c2ccccc2[se]n1-c1nc(NC2CCCCC2)c2nc[nH]c2n1 [Compound 1]

Found:
1: 6%; 2: 5%

---

Kindly supply the reported inhibition at 0.1 µM values for the records listed here.
# target-desc: YES1 (Homo sapiens, UniProt P07947)
# procedure-text: High-throughput kinase assay
# Assay type: biochemical
# run-parameters: 100 nM; read-out: Percent inhibition of kinase activity in vitro, YES1
Answers are plain numbers, in %.

Look over these answered cases.
>>> reported_measurement("O=c1c2ccccc2[se]n1-c1nc(NC2CC[Se]C2)c2nc[nH]c2n1 (centres unmarked) [Compound 2]")
22
>>> reported_measurement("O=C1c2ccccc2CN1c1nc(NC2CCCCC2)c2nc[nH]c2n1 [SLLN-6C, reference compound]")
5
>>> reported_measurement("O=c1c2ccccc2[se]n1-c1nc(N[C@H]2CC[Se]C2)c2nc[nH]c2n1 [Compound 4]")
24
>>> reported_measurement("C[C@@H]1C(Nc2nc(-n3[se]c4ccccc4c3=O)nc3[nH]cnc23)C[C@H]2C[C@@H]1C2(C)C (some centres unmarked) [Compound 3]")
17

--- query ---
Lookup: Form entry - test system: YES1 (Homo sapiens, UniProt P07947); read-out: inhibition at 0.1 µM; molecule: O=c1c2ccccc2[se]n1-c1nc(NC2CCCCC2)c2nc[nH]c2n1 [Compound 1]
Found: 22

---

# target-desc: SYK (Homo sapiens)
# procedure-text: High-throughput kinase assay
# Format: biochemical
# run-parameters: 100 nM; read-out: Percent inhibition of kinase activity in vitro, SYK
parameter: inhibition at 0.1 µM
Answer shape: numeric part, then the unit.

Give one value of inhibition at 0.1 µM per listed compound.
1. O=c1c2ccccc2[se]n1-c1nc(N[C@H]2CC[Se]C2)c2nc[nH]c2n1
2. O=c1c2ccccc2[se]n1-c1nc(NC2CC[Se]C2)c2nc[nH]c2n1 (centres unmarked)
3. O=C1c2ccccc2CN1c1nc(NC2CCCCC2)c2nc[nH]c2n1 [SLLN-6C, reference compound]
4. C[C@@H]1C(Nc2nc(-n3[se]c4ccccc4c3=O)nc3[nH]cnc23)C[C@H]2C[C@@H]1C2(C)C (some centres unmarked)
5. O=c1c2ccccc2[se]n1-c1nc(NC2CCCCC2)c2nc[nH]c2n1

Found:
1: 6%; 2: 2%; 3: 2%; 4: 0%; 5: 6%

---

# target-desc: AURKB (Aurora B) (Homo sapiens, UniProt Q96GD4)
# Sequence (Q96GD4 whole entry): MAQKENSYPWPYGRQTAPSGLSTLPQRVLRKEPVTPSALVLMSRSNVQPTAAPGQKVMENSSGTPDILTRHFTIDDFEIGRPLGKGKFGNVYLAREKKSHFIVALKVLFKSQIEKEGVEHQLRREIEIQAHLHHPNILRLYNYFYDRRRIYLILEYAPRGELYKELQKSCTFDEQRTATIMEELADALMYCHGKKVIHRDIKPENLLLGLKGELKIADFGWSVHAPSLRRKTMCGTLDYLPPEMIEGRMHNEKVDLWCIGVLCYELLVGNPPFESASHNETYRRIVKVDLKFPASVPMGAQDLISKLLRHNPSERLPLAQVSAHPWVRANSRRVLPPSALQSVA
# procedure-text: High-throughput kinase assay
# Format: biochemical
# run-parameters: 100 nM; read-out: Percent inhibition of kinase activity in vitro, AURKB (Aurora B)
parameter: inhibition at 0.1 µM (%)
Numbers only, in %.

Give one value of inhibition at 0.1 µM per listed molecule.
1. C[C@@H]1C(Nc2nc(-n3[se]c4ccccc4c3=O)nc3[nH]cnc23)C[C@H]2C[C@@H]1C2(C)C (some centres unmarked) [Compound 3]
2. O=c1c2ccccc2[se]n1-c1nc(NC2CCCCC2)c2nc[nH]c2n1 [Compound 1]
3. O=C1c2ccccc2CN1c1nc(NC2CCCCC2)c2nc[nH]c2n1 [SLLN-6C, reference compound]
4. O=c1c2ccccc2[se]n1-c1nc(N[C@H]2CC[Se]C2)c2nc[nH]c2n1 [Compound 4]
5. O=c1c2ccccc2[se]n1-c1nc(NC2CC[Se]C2)c2nc[nH]c2n1 (centres unmarked) [Compound 2]

Found:
[24, 12, 10, 14, 19]

---

# target-desc: PTK2 (FAK) (Homo sapiens, UniProt Q05397)
# Sequence (Q05397 whole entry): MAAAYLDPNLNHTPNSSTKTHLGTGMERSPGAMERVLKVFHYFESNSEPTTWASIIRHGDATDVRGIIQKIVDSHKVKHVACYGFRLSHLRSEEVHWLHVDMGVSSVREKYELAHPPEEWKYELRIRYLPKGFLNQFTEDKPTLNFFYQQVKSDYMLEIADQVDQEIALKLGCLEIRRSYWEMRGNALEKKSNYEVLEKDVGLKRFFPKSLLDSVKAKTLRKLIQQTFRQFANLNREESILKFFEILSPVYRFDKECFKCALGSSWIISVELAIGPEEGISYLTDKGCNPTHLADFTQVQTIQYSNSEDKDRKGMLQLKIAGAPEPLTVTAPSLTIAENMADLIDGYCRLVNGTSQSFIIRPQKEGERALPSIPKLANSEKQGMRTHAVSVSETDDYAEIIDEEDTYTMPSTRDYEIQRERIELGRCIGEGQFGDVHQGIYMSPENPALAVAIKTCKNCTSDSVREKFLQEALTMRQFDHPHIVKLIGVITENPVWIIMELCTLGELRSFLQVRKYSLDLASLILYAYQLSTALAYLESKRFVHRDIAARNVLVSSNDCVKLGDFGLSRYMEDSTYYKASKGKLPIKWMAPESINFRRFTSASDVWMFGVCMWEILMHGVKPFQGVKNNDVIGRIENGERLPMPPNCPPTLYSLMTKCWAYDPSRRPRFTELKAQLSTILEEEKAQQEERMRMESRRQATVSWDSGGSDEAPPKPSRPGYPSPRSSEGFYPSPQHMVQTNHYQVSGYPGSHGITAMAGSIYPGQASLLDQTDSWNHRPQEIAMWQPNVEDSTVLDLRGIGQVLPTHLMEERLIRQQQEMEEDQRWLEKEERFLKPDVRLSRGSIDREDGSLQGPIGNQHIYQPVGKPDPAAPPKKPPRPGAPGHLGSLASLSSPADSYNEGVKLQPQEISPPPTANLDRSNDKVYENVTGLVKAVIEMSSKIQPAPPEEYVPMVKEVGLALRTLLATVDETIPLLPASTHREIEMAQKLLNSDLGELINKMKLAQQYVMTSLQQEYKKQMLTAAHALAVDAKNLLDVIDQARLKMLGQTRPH
# procedure-text: High-throughput kinase assay
# Assay type: biochemical
# run-parameters: 100 nM; read-out: Percent inhibition of kinase activity in vitro, PTK2 (FAK)
parameter: inhibition at 0.1 µM

>>> reported_measurement("O=c1c2ccccc2[se]n1-c1nc(N[C@H]2CC[Se]C2)c2nc[nH]c2n1")
"1%"
>>> reported_measurement("C[C@@H]1C(Nc2nc(-n3[se]c4ccccc4c3=O)nc3[nH]cnc23)C[C@H]2C[C@@H]1C2(C)C (some centres unmarked)")
"0%"
>>> reported_measurement("O=C1c2ccccc2CN1c1nc(NC2CCCCC2)c2nc[nH]c2n1 [SLLN-6C, reference compound]")
"3%"
>>> reported_measurement("O=c1c2ccccc2[se]n1-c1nc(NC2CC[Se]C2)c2nc[nH]c2n1 (centres unmarked)")
"5%"

--- query ---
Lookup: State the recorded inhibition at 0.1 µM for this entry: `O=c1c2ccccc2[se]n1-c1nc(NC2CCCCC2)c2nc[nH]c2n1`
Found: 5%

---

# target-desc: JAK2 (Homo sapiens)
# Sequence (O60674 whole entry): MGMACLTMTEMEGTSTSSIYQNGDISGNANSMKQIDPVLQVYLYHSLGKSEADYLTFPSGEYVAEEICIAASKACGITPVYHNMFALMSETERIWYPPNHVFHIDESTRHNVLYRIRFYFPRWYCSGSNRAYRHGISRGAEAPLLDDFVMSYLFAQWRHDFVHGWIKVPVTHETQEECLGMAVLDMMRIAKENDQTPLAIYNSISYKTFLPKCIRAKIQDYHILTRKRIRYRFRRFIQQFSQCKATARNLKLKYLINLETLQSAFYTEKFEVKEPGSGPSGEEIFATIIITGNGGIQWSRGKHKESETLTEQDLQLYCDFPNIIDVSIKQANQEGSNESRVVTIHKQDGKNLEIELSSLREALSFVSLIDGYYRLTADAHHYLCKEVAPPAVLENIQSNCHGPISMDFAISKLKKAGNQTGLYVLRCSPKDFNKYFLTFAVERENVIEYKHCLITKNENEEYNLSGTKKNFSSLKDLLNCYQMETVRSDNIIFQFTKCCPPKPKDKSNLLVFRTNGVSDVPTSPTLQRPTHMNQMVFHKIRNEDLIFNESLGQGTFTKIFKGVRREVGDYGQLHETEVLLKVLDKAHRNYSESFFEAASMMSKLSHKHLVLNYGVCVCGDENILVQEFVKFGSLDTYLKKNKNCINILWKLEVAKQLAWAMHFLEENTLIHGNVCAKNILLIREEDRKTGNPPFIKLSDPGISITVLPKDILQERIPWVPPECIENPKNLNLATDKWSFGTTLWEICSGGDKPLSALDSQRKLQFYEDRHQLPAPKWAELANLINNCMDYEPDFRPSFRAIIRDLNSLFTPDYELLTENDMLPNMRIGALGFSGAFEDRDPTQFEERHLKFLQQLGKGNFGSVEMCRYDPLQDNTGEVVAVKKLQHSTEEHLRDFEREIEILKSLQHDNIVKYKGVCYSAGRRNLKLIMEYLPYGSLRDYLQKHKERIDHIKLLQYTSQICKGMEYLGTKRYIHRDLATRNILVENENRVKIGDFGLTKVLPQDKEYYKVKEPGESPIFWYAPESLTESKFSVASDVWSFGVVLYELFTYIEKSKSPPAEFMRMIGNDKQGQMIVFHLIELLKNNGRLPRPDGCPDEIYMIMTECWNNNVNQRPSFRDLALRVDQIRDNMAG
# procedure-text: High-throughput kinase assay
# Assay type: biochemical
# run-parameters: 100 nM; read-out: Percent inhibition of kinase activity in vitro, JAK2
parameter: inhibition at 0.1 µM (%)
Give bare numbers, in %.

Give one value of inhibition at 0.1 µM per listed molecule.
1. O=c1c2ccccc2[se]n1-c1nc(NC2CCCCC2)c2nc[nH]c2n1
2. O=c1c2ccccc2[se]n1-c1nc(N[C@H]2CC[Se]C2)c2nc[nH]c2n1
3. O=C1c2ccccc2CN1c1nc(NC2CCCCC2)c2nc[nH]c2n1 [SLLN-6C, reference compound]
4. O=c1c2ccccc2[se]n1-c1nc(NC2CC[Se]C2)c2nc[nH]c2n1 (centres unmarked)
5. C[C@@H]1C(Nc2nc(-n3[se]c4ccccc4c3=O)nc3[nH]cnc23)C[C@H]2C[C@@H]1C2(C)C (some centres unmarked)

Found:
10
18
7
15
13

---

# target-desc: AKT1 (PKB alpha) (Homo sapiens)
# Sequence (P31749 whole entry): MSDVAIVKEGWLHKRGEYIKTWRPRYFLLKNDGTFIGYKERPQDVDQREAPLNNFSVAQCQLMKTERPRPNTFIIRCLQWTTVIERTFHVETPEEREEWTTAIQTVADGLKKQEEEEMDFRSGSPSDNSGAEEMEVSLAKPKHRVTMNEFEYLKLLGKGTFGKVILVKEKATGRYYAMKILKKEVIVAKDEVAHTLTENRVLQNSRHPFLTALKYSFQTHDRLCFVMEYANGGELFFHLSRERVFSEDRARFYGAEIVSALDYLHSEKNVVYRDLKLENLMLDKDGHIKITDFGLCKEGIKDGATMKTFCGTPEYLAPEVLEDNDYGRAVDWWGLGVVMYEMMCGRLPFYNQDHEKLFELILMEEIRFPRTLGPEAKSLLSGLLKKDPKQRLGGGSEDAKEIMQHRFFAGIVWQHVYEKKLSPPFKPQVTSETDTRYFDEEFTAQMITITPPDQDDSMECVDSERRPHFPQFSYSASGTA
# procedure-text: High-throughput kinase assay
# Type: biochemical
# run-parameters: 100 nM; read-out: Percent inhibition of kinase activity in vitro, AKT1 (PKB alpha)
parameter: inhibition at 0.1 µM (%)
One number for each entry, in %.

>>> reported_measurement("O=c1c2ccccc2[se]n1-c1nc(NC2CC[Se]C2)c2nc[nH]c2n1 (centres unmarked)")
4
>>> reported_measurement("O=C1c2ccccc2CN1c1nc(NC2CCCCC2)c2nc[nH]c2n1 [SLLN-6C, reference compound]")
2
>>> reported_measurement("C[C@@H]1C(Nc2nc(-n3[se]c4ccccc4c3=O)nc3[nH]cnc23)C[C@H]2C[C@@H]1C2(C)C (some centres unmarked)")
1

Give one value of inhibition at 0.1 µM per listed compound.
1. O=c1c2ccccc2[se]n1-c1nc(NC2CCCCC2)c2nc[nH]c2n1
2. O=c1c2ccccc2[se]n1-c1nc(N[C@H]2CC[Se]C2)c2nc[nH]c2n1

Found:
[4, 4]

---

# target-desc: TGFBR1 (ALK5) (Homo sapiens)
# Sequence (P36897 34-503): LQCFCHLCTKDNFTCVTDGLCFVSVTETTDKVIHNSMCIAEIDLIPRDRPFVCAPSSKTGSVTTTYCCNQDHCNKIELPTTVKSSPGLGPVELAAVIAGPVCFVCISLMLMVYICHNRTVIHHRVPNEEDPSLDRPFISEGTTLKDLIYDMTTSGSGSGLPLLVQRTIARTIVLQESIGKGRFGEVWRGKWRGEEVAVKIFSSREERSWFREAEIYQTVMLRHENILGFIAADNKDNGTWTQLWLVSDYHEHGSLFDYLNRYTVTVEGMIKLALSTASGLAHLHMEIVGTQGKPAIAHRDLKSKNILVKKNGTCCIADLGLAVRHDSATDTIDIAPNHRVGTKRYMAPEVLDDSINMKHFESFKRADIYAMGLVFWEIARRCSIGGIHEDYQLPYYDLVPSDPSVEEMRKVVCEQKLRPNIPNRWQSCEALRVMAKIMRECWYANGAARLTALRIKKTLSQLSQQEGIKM
# procedure-text: High-throughput kinase assay
# Format: biochemical
# run-parameters: 100 nM; read-out: Percent inhibition of kinase activity in vitro, TGFBR1 (ALK5)
# Description: Screening of Compounds 1-4 against several kinases identified two prominent targets of these compounds as the Aurora A kinase and calcium dependent protein kinase C isoforms α, βI, βII and […] (Tables 1 to 3). IC50s for these two targets were obtained by plotting inhibition levels at 500 nM, 100 nM, 50 nM and 10 nM (FIG. 3). […]
Kindly supply the reported inhibition at 0.1 µM values for the records listed here.
Numbers only, in %.

>>> reported_measurement("O=c1c2ccccc2[se]n1-c1nc(NC2CCCCC2)c2nc[nH]c2n1 [Compound 1]")
0
>>> reported_measurement("O=c1c2ccccc2[se]n1-c1nc(NC2CC[Se]C2)c2nc[nH]c2n1 (centres unmarked) [Compound 2]")
0
>>> reported_measurement("O=c1c2ccccc2[se]n1-c1nc(N[C@H]2CC[Se]C2)c2nc[nH]c2n1 [Compound 4]")
0
>>> reported_measurement("C[C@@H]1C(Nc2nc(-n3[se]c4ccccc4c3=O)nc3[nH]cnc23)C[C@H]2C[C@@H]1C2(C)C (some centres unmarked) [Compound 3]")
3

--- query ---
Lookup: Form entry - test system: TGFBR1 (ALK5) (Homo sapiens); read-out: inhibition at 0.1 µM; compound: O=C1c2ccccc2CN1c1nc(NC2CCCCC2)c2nc[nH]c2n1 [SLLN-6C, reference compound]
Found: 0
